Assay: Two-week stability test of solvent / Warden CX mixtures (viscosity, density)
Assay type: physicochemical
Settings: mixture with Warden CX, after two weeks at 54° C., 4° C. and/or −10° C.
Protocol: The same seven solvent compositions were then evaluated for their compatibility with Warden® CX, which is a combination of fungicide and insecticide (containing a proprietary solvent) formulated for soybean seed treatment and sold by Winfield® United. Specifically, 0.5 fl. oz./cwt. of each experimental solvent was added to 50 mL of Warden® CX. […] The mixtures were then evaluated for stability by placing the samples at 54° C., 4° C. and/or at −10° C. for a two-week period. […]
quantity-kind: Post: Density

Qu. Identify measured Post: Density corresponding to OCC1CCCO1 (centres unmarked) [Tetrahydrofurfyl Alcohol]
Ans. 1.0825 g/mL

Qu. Identify measured Post: Density corresponding to CCCCOCCOCCO [Diethylene glycol butyl ether]
Ans. 1.0486 g/mL

Qu. Identify measured Post: Density corresponding to COCC(C)O (centres unmarked) [1-methoxy-2-propanol]
Ans. 1.0440 g/mL

Qu. Identify measured Post: Density corresponding to CCCCOC(=O)C(C)O (centres unmarked) [Butyl lactate]
Ans. 1.1067 g/mL

Qu. Identify measured Post: Density corresponding to `CCCCOCCO`
Ans. 1.0263 g/mL

---

test: Two-week stability test of solvent / Warden CX mixtures (viscosity, density); assay type: physicochemical; details: mixture with Warden CX, after two weeks at 54° C., 4° C. and/or −10° C.
quantity-kind: Post: Viscosity (cPa)
Only the number, expressed in cPa, is required.

Qu. Identify measured Post: Viscosity corresponding to `CCCCOCCO`
Ans. 69.69

Qu. Identify measured Post: Viscosity corresponding to OCC1CCCO1 (centres unmarked) [Tetrahydrofurfyl Alcohol]
Ans. 150.59

Qu. Identify measured Post: Viscosity corresponding to COCC(C)O (centres unmarked)
Ans. 106.18

Qu. Identify measured Post: Viscosity corresponding to CCCCOC(=O)C(C)O (centres unmarked) [Butyl lactate]
Ans. 387.57

Qu. Identify measured Post: Viscosity corresponding to `CCCCOCCOCCO`
Ans. 45.06

---

assay: Two-week stability test of solvent / Warden CX mixtures (viscosity, density); assay type: physicochemical; details: mixture with Warden CX, before two-week stability test
I'd appreciate it if you could supply Pre: Viscosity values for the items below.
Only the number, expressed in cPa, is required.

Qu. Identify measured Pre: Viscosity corresponding to CCCCOCCOCCO [Diethylene glycol butyl ether]
Ans. 112.48

Qu. Identify measured Pre: Viscosity corresponding to `CCCCOCCO`
Ans. 138.49

Qu. Identify measured Pre: Viscosity corresponding to COCC(C)O (centres unmarked) [1-methoxy-2-propanol]
Ans. 1764.63

Qu. Identify measured Pre: Viscosity corresponding to CCCCOC(=O)C(C)O (centres unmarked) [Butyl lactate]
Ans. 901.94

Qu. Identify measured Pre: Viscosity corresponding to OCC1CCCO1 (centres unmarked) [Tetrahydrofurfyl Alcohol]
Ans. 962.75
